Entries and their measured AC50 follow.
Target: Replicative DNA helicase DnaB (Mycobacterium tuberculosis)
Sequence (P9WMR3 whole entry): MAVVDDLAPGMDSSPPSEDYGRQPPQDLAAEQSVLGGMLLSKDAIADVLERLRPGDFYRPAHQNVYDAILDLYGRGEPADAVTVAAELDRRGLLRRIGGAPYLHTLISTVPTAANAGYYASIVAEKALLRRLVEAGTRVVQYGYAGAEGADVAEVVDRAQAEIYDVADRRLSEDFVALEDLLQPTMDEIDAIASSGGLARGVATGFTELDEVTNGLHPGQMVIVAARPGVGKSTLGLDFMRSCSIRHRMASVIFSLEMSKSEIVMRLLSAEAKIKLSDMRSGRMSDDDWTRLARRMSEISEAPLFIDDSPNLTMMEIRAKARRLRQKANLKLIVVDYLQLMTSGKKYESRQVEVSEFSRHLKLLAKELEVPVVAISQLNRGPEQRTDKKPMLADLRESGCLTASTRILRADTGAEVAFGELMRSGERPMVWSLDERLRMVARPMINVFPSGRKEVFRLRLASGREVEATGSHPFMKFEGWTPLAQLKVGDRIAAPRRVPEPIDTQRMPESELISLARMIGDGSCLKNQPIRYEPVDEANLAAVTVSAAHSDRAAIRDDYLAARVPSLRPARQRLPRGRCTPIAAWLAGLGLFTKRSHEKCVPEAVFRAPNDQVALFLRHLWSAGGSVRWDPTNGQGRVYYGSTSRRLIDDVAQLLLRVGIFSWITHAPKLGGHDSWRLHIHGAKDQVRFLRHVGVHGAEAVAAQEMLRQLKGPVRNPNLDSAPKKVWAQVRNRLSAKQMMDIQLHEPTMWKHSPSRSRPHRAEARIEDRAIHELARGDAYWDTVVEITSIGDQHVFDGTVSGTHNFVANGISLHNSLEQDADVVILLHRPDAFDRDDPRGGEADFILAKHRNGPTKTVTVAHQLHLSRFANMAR
Experiment: DnaB intein splicing inhibitors, dose response, biochemical, cell-free fluorescence (AID 449749)
Type: functional
The source made the active and inactive calls. Rule as the data show it: actives have a measured AC50 and inactives only a lower limit.
Readout Label: AC50

{"columns": ["Compound", "Observed Value"],
 "data": [
  ["O=C(Nc1ccc(Cl)cc1)/C(=C/c1cccc(O)c1)c1nc2ccccc2s1", "> 380 µM (inconclusive)"],
  ["Cc1ccccc1C(CC(=O)c1cccs1)C(C#N)C#N (stereo unspecified)", "> 380 µM (inconclusive)"],
  ["O=C(CN1C(=O)/C(=C2\\SC(=S)N(CCS(=O)(=O)O)C2=O)c2ccccc21)Nc1cccc(Br)c1", "12.4 µM (active)"],
  ["CCCCCCCCCCOC(=O)C[n+]1c(COc2ccc(C)cc2)n(C)c2ccccc21", "3.82 µM (active)"],
  ["Nc1ccccc1S(=O)(=O)NC1=NCCCCC1", "> 380 µM (inactive)"],
  ["O=C(CSc1ncnc2c1nnn2Cc1ccccc1F)NCC1CCCO1 (stereo unspecified)", "15 µM (active)"]
]}
